Biological target: Human Cav 2.2 channels (Homo sapiens, UniProt Q00975)
Sequence (Q00975 whole entry): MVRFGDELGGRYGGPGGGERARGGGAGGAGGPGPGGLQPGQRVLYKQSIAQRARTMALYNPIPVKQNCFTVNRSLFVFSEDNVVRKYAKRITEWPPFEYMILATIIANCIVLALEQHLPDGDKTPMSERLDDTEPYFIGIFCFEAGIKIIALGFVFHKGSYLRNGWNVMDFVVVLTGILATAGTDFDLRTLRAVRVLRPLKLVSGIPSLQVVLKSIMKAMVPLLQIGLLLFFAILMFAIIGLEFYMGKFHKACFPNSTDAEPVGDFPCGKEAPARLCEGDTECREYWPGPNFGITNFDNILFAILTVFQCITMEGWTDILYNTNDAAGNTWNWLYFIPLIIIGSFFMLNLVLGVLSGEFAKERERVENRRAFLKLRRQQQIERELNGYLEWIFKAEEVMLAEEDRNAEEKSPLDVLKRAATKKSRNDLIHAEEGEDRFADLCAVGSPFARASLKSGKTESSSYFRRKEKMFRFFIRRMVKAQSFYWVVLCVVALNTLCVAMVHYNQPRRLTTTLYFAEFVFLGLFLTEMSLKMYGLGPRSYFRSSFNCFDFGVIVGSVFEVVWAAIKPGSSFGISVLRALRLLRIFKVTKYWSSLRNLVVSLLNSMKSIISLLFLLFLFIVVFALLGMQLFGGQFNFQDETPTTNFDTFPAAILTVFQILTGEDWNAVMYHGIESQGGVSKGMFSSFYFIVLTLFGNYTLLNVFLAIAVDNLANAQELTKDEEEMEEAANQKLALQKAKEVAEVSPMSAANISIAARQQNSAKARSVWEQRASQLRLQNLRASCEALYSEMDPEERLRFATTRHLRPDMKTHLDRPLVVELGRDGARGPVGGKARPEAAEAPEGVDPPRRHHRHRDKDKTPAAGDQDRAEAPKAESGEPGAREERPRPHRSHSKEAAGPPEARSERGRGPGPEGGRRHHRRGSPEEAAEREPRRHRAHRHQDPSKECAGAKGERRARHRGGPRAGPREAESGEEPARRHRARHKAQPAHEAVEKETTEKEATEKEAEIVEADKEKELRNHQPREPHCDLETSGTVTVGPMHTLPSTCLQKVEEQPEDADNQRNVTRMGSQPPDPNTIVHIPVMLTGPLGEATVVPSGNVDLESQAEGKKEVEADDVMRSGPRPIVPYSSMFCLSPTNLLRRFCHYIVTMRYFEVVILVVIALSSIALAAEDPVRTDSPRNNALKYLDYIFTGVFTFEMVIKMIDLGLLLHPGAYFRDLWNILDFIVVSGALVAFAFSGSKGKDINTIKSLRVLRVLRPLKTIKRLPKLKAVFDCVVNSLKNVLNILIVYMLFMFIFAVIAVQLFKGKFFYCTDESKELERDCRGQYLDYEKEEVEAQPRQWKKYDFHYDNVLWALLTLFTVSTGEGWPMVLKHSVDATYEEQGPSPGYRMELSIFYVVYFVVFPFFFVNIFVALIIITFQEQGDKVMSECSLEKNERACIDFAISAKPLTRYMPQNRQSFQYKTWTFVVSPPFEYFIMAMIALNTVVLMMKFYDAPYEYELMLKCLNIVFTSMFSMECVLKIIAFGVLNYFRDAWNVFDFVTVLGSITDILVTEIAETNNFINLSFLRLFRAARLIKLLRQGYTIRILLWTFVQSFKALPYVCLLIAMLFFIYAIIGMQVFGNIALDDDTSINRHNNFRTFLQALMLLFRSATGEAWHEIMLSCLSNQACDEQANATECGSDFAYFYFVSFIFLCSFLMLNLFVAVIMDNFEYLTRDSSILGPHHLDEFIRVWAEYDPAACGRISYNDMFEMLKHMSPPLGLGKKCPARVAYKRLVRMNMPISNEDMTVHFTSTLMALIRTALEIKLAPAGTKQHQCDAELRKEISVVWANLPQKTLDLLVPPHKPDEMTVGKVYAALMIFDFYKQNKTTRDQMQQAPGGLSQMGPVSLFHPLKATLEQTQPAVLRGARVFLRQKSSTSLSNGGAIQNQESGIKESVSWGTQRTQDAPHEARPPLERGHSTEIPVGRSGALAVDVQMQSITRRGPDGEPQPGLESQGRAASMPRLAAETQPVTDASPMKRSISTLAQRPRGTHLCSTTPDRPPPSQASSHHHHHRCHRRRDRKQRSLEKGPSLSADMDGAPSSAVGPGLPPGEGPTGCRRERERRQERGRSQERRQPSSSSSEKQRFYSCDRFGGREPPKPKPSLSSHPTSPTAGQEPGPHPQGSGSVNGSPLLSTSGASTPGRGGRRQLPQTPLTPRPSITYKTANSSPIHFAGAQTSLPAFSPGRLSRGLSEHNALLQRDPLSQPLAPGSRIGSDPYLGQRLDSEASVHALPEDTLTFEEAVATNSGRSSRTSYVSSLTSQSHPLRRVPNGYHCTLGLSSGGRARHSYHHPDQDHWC
Sequence (P54289 25-1103 partner): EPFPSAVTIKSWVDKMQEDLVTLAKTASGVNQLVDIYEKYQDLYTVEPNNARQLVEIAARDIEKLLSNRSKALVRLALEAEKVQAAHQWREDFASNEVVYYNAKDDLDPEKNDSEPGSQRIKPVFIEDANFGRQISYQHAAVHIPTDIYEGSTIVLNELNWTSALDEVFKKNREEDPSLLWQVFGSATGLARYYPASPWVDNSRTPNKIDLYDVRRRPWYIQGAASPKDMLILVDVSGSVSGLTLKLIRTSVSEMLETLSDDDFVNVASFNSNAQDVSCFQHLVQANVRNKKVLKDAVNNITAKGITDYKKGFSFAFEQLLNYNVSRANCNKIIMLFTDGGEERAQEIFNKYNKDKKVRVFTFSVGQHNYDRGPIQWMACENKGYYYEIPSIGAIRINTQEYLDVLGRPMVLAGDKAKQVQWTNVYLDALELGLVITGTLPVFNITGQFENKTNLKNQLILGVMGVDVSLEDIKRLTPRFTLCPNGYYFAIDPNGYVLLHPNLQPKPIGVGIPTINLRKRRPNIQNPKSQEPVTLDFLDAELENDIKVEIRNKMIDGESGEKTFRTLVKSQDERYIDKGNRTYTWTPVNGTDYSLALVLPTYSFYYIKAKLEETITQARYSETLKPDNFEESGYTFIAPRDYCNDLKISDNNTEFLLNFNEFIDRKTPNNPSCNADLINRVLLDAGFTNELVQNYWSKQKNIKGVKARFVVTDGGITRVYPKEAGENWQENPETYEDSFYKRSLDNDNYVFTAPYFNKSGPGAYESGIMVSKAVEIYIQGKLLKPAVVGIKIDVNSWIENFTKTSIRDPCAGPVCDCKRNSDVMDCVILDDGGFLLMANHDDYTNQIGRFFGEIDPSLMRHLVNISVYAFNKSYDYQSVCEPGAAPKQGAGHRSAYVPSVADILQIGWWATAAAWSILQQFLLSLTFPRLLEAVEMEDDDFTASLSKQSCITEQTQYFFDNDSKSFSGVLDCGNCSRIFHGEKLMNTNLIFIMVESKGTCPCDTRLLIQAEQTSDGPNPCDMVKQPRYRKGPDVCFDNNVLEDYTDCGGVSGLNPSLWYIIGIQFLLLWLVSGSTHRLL
Sequence (P54284 whole entry partner): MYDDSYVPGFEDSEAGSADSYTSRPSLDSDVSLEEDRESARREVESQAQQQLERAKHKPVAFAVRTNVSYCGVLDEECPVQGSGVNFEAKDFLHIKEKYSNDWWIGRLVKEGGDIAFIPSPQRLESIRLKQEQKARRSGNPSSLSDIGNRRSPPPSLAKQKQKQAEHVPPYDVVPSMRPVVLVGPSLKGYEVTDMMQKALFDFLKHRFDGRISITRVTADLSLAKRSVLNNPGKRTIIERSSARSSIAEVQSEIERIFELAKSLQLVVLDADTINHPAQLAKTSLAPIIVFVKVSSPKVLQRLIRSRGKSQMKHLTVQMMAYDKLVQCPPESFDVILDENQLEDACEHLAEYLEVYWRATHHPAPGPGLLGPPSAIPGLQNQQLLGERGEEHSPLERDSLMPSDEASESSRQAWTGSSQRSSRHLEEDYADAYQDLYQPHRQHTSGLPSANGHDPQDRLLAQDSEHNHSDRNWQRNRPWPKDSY
Assay: Fluorescent assay for CaV2.2 channels using potassium depolarization (VIPR/FLIPR)
Assay type: cell-based
Details: FLIPR data; ratio closed/inactivated IC50
Reported CAv2.2 IC50 Ratio closed/inact. values for the following compounds.

{"columns": ["compound", "measurement target", "CAv2.2 IC50 Ratio closed/inact."],
 "data": [
  ["CC(C)([C@H]1C[C@H](NC(=O)c2ccnc(C(F)(F)F)n2)C1)S(=O)(=O)c1cccc(OC(F)(F)F)c1", "Human Cav 2.2 channels (Homo sapiens, UniProt Q00975)", 7.4],
  ["O=C(NC[C@H]1C[C@H](S(=O)(=O)c2cccc(OC(F)(F)F)c2)C1)c1ccc(OCC(F)(F)F)nc1 [Compound 698]", "Human Cav 2.2 channels (Homo sapiens, UniProt Q00975)", 5.7],
  ["O=C(NC[C@H]1C[C@H](S(=O)(=O)c2cccc(OC(F)(F)F)c2)C1)c1ccc(C(F)(F)F)nc1", "Human Cav 2.2 channels (Homo sapiens, UniProt Q00975)", 6.6],
  ["CS(=O)(=O)c1cc(C(F)(F)F)cnc1C(=O)NC[C@H]1C[C@H](S(=O)(=O)c2cc(F)cc(C(F)(F)F)c2)C1", "Human Cav 2.2 channels (Homo sapiens, UniProt Q00975)", 4.5],
  ["CC(C)([C@H]1C[C@H](NC(=O)c2cc(C(F)(F)F)n[nH]2)C1)S(=O)(=O)c1cc(F)cc(C(F)(F)F)c1", "Human Cav 2.2 channels (Homo sapiens, UniProt Q00975)", 11.7],
  ["CC(C)([C@H]1C[C@@H](CNC(=O)c2ccnc(C(F)(F)F)n2)C1)S(=O)(=O)c1cccc(C(F)(F)F)c1", "Human Cav 2.2 channels (Homo sapiens, UniProt Q00975)", 10.7],
  ["Cn1nc(C(F)(F)F)cc1C(=O)N[C@H]1C[C@@H](CC(C)(C)S(=O)(=O)c2cccc(C(F)(F)F)c2)C1", "Human Cav 2.2 channels (Homo sapiens, UniProt Q00975)", 10.6],
  ["CS(=O)(=O)c1cc(Cl)ccc1C(=O)NC[C@H]1C[C@H](S(=O)(=O)c2cc(F)cc(C(F)(F)F)c2)C1", "Human Cav 2.2 channels (Homo sapiens, UniProt Q00975)", 7.2],
  ["CC(C)([C@H]1C[C@H](NC(=O)c2ccc(C(F)(F)F)nc2)C1)S(=O)(=O)c1cccc(C(F)(F)F)c1", "Human Cav 2.2 channels (Homo sapiens, UniProt Q00975)", 17.6],
  ["CC(C)S(=O)(=O)c1cc(C(F)(F)F)cnc1C(=O)N[C@H]1C[C@@H](C(C)(C)S(=O)(=O)c2cc(F)cc(C(F)(F)F)c2)C1", "Human Cav 2.2 channels (Homo sapiens, UniProt Q00975)", 20.8],
  ["CC(C)([C@H]1C[C@@H](NC(=O)c2cc(C(F)(F)F)n[nH]2)C1)S(=O)(=O)c1cc(F)cc(C(F)(F)F)c1", "Human Cav 2.2 channels (Homo sapiens, UniProt Q00975)", 7.7],
  ["CC(C)(C1CC(CNC(=O)c2cc(C(F)(F)F)n[nH]2)C1)S(=O)(=O)c1cccc(C(F)(F)F)c1 (centres unmarked) [Compound 682]", "Human Cav 2.2 channels (Homo sapiens, UniProt Q00975)", 12.5],
  ["CC(C)([C@H]1C[C@H](NS(=O)(=O)c2ccc(C(F)(F)F)cc2Cl)C1)S(=O)(=O)c1cccc(C(F)(F)F)c1", "Human Cav 2.2 channels (Homo sapiens, UniProt Q00975)", 15.4],
  ["CS(=O)(=O)c1cc(Cl)ccc1C(=O)NC[C@H]1C[C@H](S(=O)(=O)c2cccc(OC(F)(F)F)c2)C1", "Human Cav 2.2 channels (Homo sapiens, UniProt Q00975)", 9.9]
]}

Values were extracted from patent US20120245137A1.
